tgt: human D2L receptor (Homo sapiens)
Construct: expressed in transfected cells
Sequence (P14416 whole entry): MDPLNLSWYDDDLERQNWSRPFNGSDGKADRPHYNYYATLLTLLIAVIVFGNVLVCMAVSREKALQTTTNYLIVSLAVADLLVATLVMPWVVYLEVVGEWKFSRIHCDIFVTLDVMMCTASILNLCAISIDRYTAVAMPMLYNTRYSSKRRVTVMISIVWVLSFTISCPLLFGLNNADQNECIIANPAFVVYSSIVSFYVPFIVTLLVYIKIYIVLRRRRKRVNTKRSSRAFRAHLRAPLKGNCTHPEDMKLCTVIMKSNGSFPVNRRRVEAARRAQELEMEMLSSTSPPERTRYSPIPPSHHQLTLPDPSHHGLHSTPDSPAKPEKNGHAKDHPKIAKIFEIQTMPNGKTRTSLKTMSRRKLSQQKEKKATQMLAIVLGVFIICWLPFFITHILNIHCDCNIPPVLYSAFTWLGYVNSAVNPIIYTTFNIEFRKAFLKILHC
test-description: Fast dissociation: indirect assay of rate of dissociation from D2 receptor ([3H]spiperone binding after pre-incubation with compound)
experimental-parameters: [3H]spiperone binding as % of total binding capacity after 5 min on filter; compound pre-incubated at 4 times its IC50; >50% = faster than clozapine
Measured D2 dissociation, listed per entry.
The figure you give is taken to be in %; do not add the unit.

# annotated cases, reported D2 dissociation shown
molecule	value-units	numeric-value
FC(F)(F)c1nnc(N2CCN3CCCC3C2)cc1-c1ccccc1 (racemic)	%	84
FC(F)(F)c1nnc(N2CCNCC2)cc1-c1ccsc1	%	81

Param item = CCN1CCN(c2cc(-c3ccccc3)c(C(F)(F)F)nn2)CC1 [Example E2] ; retrieve measured D2 dissociation.
80.5
